Listed below: hERG current change (%, negative = inhibition) at 10uM values for each entry.
Molecular target: human ether-à-go-go-related gene (hERG) potassium channel (human, UniProt Q12809);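 further: peak tail current of the secondary pulse compared with the same well before compound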
Sequence (Q12809 whole entry, looked up): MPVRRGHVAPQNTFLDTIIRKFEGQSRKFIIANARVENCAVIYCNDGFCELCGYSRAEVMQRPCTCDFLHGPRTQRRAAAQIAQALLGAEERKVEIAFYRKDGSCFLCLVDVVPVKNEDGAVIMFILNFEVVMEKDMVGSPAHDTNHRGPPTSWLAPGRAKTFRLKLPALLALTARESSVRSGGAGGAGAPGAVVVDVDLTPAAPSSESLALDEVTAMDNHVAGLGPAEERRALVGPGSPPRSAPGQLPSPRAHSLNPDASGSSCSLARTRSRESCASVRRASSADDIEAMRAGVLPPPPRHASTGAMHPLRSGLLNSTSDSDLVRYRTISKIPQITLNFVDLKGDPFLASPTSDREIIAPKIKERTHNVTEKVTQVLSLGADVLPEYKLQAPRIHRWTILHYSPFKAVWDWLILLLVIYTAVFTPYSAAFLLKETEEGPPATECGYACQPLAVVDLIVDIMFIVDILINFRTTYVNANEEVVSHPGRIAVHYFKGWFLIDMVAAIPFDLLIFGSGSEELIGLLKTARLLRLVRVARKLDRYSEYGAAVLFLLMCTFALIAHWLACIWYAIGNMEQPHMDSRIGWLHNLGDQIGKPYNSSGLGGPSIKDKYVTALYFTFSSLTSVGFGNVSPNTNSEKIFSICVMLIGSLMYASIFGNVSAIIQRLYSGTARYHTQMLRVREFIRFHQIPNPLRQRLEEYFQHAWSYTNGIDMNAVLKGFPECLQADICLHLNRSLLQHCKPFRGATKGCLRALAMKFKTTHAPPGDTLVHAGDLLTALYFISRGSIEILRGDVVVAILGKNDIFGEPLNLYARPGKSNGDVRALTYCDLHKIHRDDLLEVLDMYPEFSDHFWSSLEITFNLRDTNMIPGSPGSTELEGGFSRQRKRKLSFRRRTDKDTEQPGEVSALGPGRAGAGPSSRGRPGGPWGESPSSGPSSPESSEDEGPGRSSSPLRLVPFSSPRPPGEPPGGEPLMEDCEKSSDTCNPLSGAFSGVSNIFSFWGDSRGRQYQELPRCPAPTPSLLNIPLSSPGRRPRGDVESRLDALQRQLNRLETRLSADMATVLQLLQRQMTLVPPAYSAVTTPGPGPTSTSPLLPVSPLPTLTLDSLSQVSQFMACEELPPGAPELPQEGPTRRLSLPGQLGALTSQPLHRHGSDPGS
Assay: primary screen, population patch clamp on CHO cells stably expressing hERG; higher = less effect of the substance
The campaign covered roughly 310,000 compounds. About 14,000 (4.5%) showed an effect of 50% or more. Effects have a minus sign here. Only a selection was taken, and strong results are over-represented in it overall.
parameter-measured: hERG current change (%, negative = inhibition) at 10uM (%)

entry_smiles=CC(C)=CCOc1ccc2c(C)c(CC(=O)N3C[C@H]4C[C@@H](C3)c3cccc(=O)n3C4)c(=O)oc2c1C measured_result=-57.3
entry_smiles=COc1ccc(C(=O)N/C(=C\c2ccc3c(c2)OCO3)C(=O)N2CCOCC2)cc1 measured_result=19.6
entry_smiles=C/C(=N/OC(=O)CC(C)C)c1cc(-c2ccc(Cl)cc2)no1 measured_result=15
entry_smiles=COc1ccc(/C=C(/NC(=O)c2ccc(Br)cc2)C(=O)N2CCOCC2)cc1 measured_result=5.5

###

Documented hERG current change (%, negative = inhibition) at 10uM across a set of molecules
Biological target: human ether-à-go-go-related gene (hERG) potassium channel (human, UniProt Q12809);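 further: peak tail current of the secondary pulse compared with the same well before compound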
Test: primary screen, population patch clamp on CHO cells stably expressing hERG; higher = less effect of the substance
The whole screen tested about 310,000 compounds, of which about 14,000 (4.5%) showed an effect of 50% or more. The effect is printed as a negative number. Only a selection was taken, and strong results are over-represented in it overall.
parameter-measured: hERG current change (%, negative = inhibition) at 10uM (%)

molecule="COc1ccc(-c2nc(CN3CCC(C(=O)NCC4CCCO4)CC3)c(C)o2)cc1OC (stereo not shown)" measurement_unit=% measured_result=-20.9
molecule=Cc1ccc(S(=O)(=O)Nc2cccc(C(=O)NCC(C)(C)N3CCOCC3)c2)cc1F measurement_unit=% measured_result=-50.3
molecule="O=C1C=C(NNC(=O)c2ccncc2)CC(c2ccccc2)C1 (stereo not shown)" measurement_unit=% measured_result=-1.64
molecule="Cc1oc(-c2cccc(Cl)c2)nc1CN1CCC(C(=O)NCC2CCCO2)CC1 (stereo not shown)" measurement_unit=% measured_result=-57.1
molecule=Cc1cc(=O)oc2cc(OCc3cc4c(cc3Cl)OCO4)ccc12 measurement_unit=% measured_result=8.74
molecule=CN(C)S(=O)(=O)c1ccc(Cl)c(C(=O)NC2CCCCCCC2)c1 measurement_unit=% measured_result=7.33
molecule=Cc1cc(C)n(-c2ccc(C(=O)N3CCc4ccccc43)cc2)n1 measurement_unit=% measured_result=-3.89
molecule="CC(C(=O)NCCc1ccccc1)N1c2cccc3cccc(c23)S1(=O)=O (stereo not shown)" measurement_unit=% measured_result=-21.2
molecule=Cc1ccc(NC(=O)c2cc(NC(=O)c3ccco3)ccc2N2CCCCC2)cc1 measurement_unit=% measured_result=13
molecule=CC(=O)Nc1cccc(C(=O)NCC2(N3CCCCC3)CCCCC2)c1 measurement_unit=% measured_result=19.4
molecule="COc1ccc(C2CC(=O)C=C(NCCC(C)C)C2)cc1 (stereo not shown)" measurement_unit=% measured_result=-73.2
molecule=O=C(CCCCCN1C(=O)[C@@H]2Cc3ccccc3CN2C1=O)Nc1cccc(F)c1 measurement_unit=% measured_result=-67.9
molecule=Cn1ncc(Cl)c1C(=O)NCc1ccc(Cl)cc1 measurement_unit=% measured_result=-13.3
molecule=O=C(O)C/C(=C\c1ccc(Cl)cc1)c1nc2ccccc2o1 measurement_unit=% measured_result=6.78
molecule=Cc1ccccc1-c1nc(CN2CCC(C(=O)NCCN3CCOCC3)CC2)c(C)o1 measurement_unit=% measured_result=-11.4
molecule="O=C1C=C(Nc2ccccc2)CC(c2ccccc2)C1 (stereo not shown)" measurement_unit=% measured_result=9.51
molecule=COC(=O)c1cc(C#N)c(=O)[nH]c1C measurement_unit=% measured_result=20.3
molecule=O=C(CCN1C(=O)[C@@H]2Cc3ccccc3CN2C1=O)Nc1cccc(F)c1 measurement_unit=% measured_result=-13.8
molecule=Cc1ccc(CNC(=O)c2ccccc2N)cc1 measurement_unit=% measured_result=5.16
molecule=CC(C)(CNC(=O)c1cccc(NS(=O)(=O)c2ccc(Br)cc2)c1)N1CCOCC1 measurement_unit=% measured_result=-33.7
molecule=Cc1ccc(NC(=O)/C(=C\c2cccnc2)NC(=O)c2ccccc2)cc1 measurement_unit=% measured_result=-46
molecule=Cc1ccc(S(=O)(=O)Nc2cccc(C(=O)N3CCCC3)c2)cc1F measurement_unit=% measured_result=-0.933

###

Target: human ether-à-go-go-related gene (hERG) potassium channel (human, UniProt Q12809);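 further: peak tail current of the secondary pulse compared with the same well before compound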
Test: primary screen, population patch clamp on CHO cells stably expressing hERG; higher = less effect of the substance
The whole screen tested about 310,000 compounds, of which about 14,000 (4.5%) showed an effect of 50% or more. Effects have a minus sign here. What follows is part of a selection rich in strong results, with near analogues and random picks from the rest.
Give 1.0 when the value for hERG current change (%, negative = inhibition) at 10uM is at least -20%. Give 0.0 when it is less.

compound="O=C(NCCc1ccccc1)C(=O)NCC(c1ccco1)N1CCOCC1 (stereo not shown)" target_desc="human ether-à-go-go-related gene (hERG) potassium channel (human, UniProt Q12809)" assigned_class=1.0
compound=CCN(CC)C(=O)C1CCN(S(=O)(=O)c2ccc(-n3cnnn3)cc2)CC1 target_desc="human ether-à-go-go-related gene (hERG) potassium channel (human, UniProt Q12809)" assigned_class=0.0
compound=CN(Cc1ccccc1)C(=O)C1CCN(S(=O)(=O)c2ccc(-n3cnnn3)cc2)CC1 target_desc="human ether-à-go-go-related gene (hERG) potassium channel (human, UniProt Q12809)" assigned_class=0.0
compound=COc1ccc(CCN(C)Cc2c(O)ccc3ccccc23)cc1OC target_desc="human ether-à-go-go-related gene (hERG) potassium channel (human, UniProt Q12809)" assigned_class=0.0
compound="CCC(C)NC(=O)C1CCN(S(=O)(=O)c2ccc(-n3cnnn3)cc2)CC1 (stereo not shown)" target_desc="human ether-à-go-go-related gene (hERG) potassium channel (human, UniProt Q12809)" assigned_class=1.0
compound=O=C(Cc1cn2ccsc2n1)Nc1nc2c(s1)CCCC2 target_desc="human ether-à-go-go-related gene (hERG) potassium channel (human, UniProt Q12809)" assigned_class=1.0
compound=C=CCN(CC=C)C(=O)C1CCN(S(=O)(=O)c2ccc(-n3cnnn3)cc2)CC1 target_desc="human ether-à-go-go-related gene (hERG) potassium channel (human, UniProt Q12809)" assigned_class=0.0
compound=CC(=O)c1ccc(S(=O)(=O)N2CCC(Oc3ccc(-n4cnnn4)cc3)CC2)cc1 target_desc="human ether-à-go-go-related gene (hERG) potassium channel (human, UniProt Q12809)" assigned_class=1.0
compound=COc1ccc2cc(Br)ccc2c1CC(=O)N(C)C target_desc="human ether-à-go-go-related gene (hERG) potassium channel (human, UniProt Q12809)" assigned_class=1.0
compound=Cc1ccc(Cn2ccsc2=NC(=O)COC(=O)C(C)C)cc1 target_desc="human ether-à-go-go-related gene (hERG) potassium channel (human, UniProt Q12809)" assigned_class=1.0
compound=COc1ccc(CCN(C)C(=O)CNC(=O)Cc2cccc3ccccc23)cc1OC target_desc="human ether-à-go-go-related gene (hERG) potassium channel (human, UniProt Q12809)" assigned_class=1.0
compound=O=C(Nc1nccs1)c1ccc(Br)cc1 target_desc="human ether-à-go-go-related gene (hERG) potassium channel (human, UniProt Q12809)" assigned_class=1.0
compound=C=CCN(CC=C)C(=O)C1CCN(S(=O)(=O)c2ccc(N3CCCC3=O)cc2)CC1 target_desc="human ether-à-go-go-related gene (hERG) potassium channel (human, UniProt Q12809)" assigned_class=1.0

###

This listing pairs molecules with measured hERG current change (%, negative = inhibition) at 10uM.
Molecular target: human ether-à-go-go-related gene (hERG) potassium channel (human, UniProt Q12809);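 further: peak tail current of the secondary pulse compared with the same well before compound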
Assay: primary screen, population patch clamp on CHO cells stably expressing hERG; higher = less effect of the substance
Method: Briefly, Chinese hamster ovary (CHO) cells stably expressing the hERG channel were dislodged from tissue culture flasks and dispensed into PPC plates. […] During the recording, background leak currents were estimated by a 100 ms step to -80 mV from an initial holding potential of -70 mV and subtracted from the subsequent current measurement. The campaign was conducted in two phases using slight differences in recording protocol. […]
Hit rate of the full screen: of about 310,000 compounds, about 14,000 (4.5%) showed an effect of 50% or more. Effects have a minus sign here. Many of the other results were omitted from the sample, so strong results are more common in it than they were.
parameter-measured: hERG current change (%, negative = inhibition) at 10uM (%)

molecule=O=C(CSc1ccccc1)NCC1(N2CCOCC2)CCCCC1 target_desc="human ether-à-go-go-related gene (hERG) potassium channel (human, UniProt Q12809)" measured_result=-19
molecule=O=C(Nc1cc(S(=O)(=O)N2CCOCC2)ccc1Oc1ccc(F)cc1)C1=COCCO1 target_desc="human ether-à-go-go-related gene (hERG) potassium channel (human, UniProt Q12809)" measured_result=-69.8
molecule=Cc1cccc(N2CCN(C(=O)c3ccccc3SCC(=O)N3CCCC3)CC2)c1C target_desc="human ether-à-go-go-related gene (hERG) potassium channel (human, UniProt Q12809)" measured_result=-34.7
molecule=CCN(CC)S(=O)(=O)c1ccc(C)c(NC(=O)CN2CCN(Cc3ccccc3)CC2)c1.Cl target_desc="human ether-à-go-go-related gene (hERG) potassium channel (human, UniProt Q12809)" measured_result=-69.1
molecule=O=C(Nc1ccc(F)cc1)Nc1cc(S(=O)(=O)N2CCOCC2)ccc1N1CCCC1 target_desc="human ether-à-go-go-related gene (hERG) potassium channel (human, UniProt Q12809)" measured_result=-97.4
molecule=Cc1cccc(-n2nnnc2SCC(=O)NCC2(N3CCOCC3)CCCCC2)c1C target_desc="human ether-à-go-go-related gene (hERG) potassium channel (human, UniProt Q12809)" measured_result=-57.9
molecule=CCN(CC)S(=O)(=O)c1ccc(N2CCOCC2)c(NC(=O)COc2ccccc2)c1 target_desc="human ether-à-go-go-related gene (hERG) potassium channel (human, UniProt Q12809)" measured_result=-11.1
molecule=Cc1ccccc1-n1nnnc1SCC(=O)NCC1(N2CCOCC2)CCCCC1 target_desc="human ether-à-go-go-related gene (hERG) potassium channel (human, UniProt Q12809)" measured_result=-24.9
molecule=CS(=O)(=O)c1ccc(-c2nnc(NC(=O)c3cccc(N4C(=O)CCC4=O)c3)o2)cc1 target_desc="human ether-à-go-go-related gene (hERG) potassium channel (human, UniProt Q12809)" measured_result=6.65
molecule=O=C(Nc1ccccn1)c1ccc(Cl)c(S(=O)(=O)N2CCCCCC2)c1 target_desc="human ether-à-go-go-related gene (hERG) potassium channel (human, UniProt Q12809)" measured_result=-32.7
molecule=CCOc1ccccc1-n1nnnc1SCC(=O)NCC1(N2CCOCC2)CCCCC1 target_desc="human ether-à-go-go-related gene (hERG) potassium channel (human, UniProt Q12809)" measured_result=-67.7
molecule="O=C(NC(CC(=O)N1CCCC(C(F)(F)F)C1)c1ccccc1)c1ccccc1Cl (centres unmarked)" target_desc="human ether-à-go-go-related gene (hERG) potassium channel (human, UniProt Q12809)" measured_result=-8.81
molecule=O=C(CN1CCC(C(=O)c2ccc(F)cc2)CC1)Nc1ccccc1Cl target_desc="human ether-à-go-go-related gene (hERG) potassium channel (human, UniProt Q12809)" measured_result=-20.5
molecule=CCOC(=O)c1c(C)nsc1NC(=O)c1ccco1 target_desc="human ether-à-go-go-related gene (hERG) potassium channel (human, UniProt Q12809)" measured_result=-4.79
molecule=O=C(COC(=O)c1ccc(F)cc1)Nc1cc(S(=O)(=O)N2CCOCC2)ccc1N1CCCC1 target_desc="human ether-à-go-go-related gene (hERG) potassium channel (human, UniProt Q12809)" measured_result=-28.2
molecule=CCN(CC)c1ccc(S(=O)(=O)N2CCOCC2)cc1NC(=O)CN1CCN(Cc2ccccc2)CC1.Cl target_desc="human ether-à-go-go-related gene (hERG) potassium channel (human, UniProt Q12809)" measured_result=-45.7
molecule=C/C(=N/NC(=O)CSc1nc2ccccc2s1)c1ccncc1 target_desc="human ether-à-go-go-related gene (hERG) potassium channel (human, UniProt Q12809)" measured_result=-24
